Molecular target: human Y4 receptor (human, UniProt P50391 1-375)
Sequence (P50391 whole entry): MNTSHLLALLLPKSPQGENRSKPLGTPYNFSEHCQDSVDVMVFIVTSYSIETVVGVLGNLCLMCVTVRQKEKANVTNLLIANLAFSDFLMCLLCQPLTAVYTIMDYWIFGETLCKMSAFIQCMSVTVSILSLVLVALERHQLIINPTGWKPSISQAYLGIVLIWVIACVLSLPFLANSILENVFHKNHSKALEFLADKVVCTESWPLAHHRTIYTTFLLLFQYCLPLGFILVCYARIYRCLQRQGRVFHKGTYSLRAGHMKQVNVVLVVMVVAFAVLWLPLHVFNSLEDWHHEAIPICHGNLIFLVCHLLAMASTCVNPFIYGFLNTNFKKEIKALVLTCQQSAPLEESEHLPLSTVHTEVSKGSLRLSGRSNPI
Assay: 125I-PP displacement
pIC50: −log10 of the molar value.
experimental readout: pIC50

Exercise: # pIC50 lookup, item AAPLEPVYPGDNATPEQMARYYSELRRYINKLTRPRY [4058280]
Solution: 10.38

Exercise: # pIC50 lookup, item PLEPEYPGDNATPEQMAKYAAELRRYINLLTRPRY [4058154]
Solution: 9.98

Exercise: # pIC50 lookup, item YAPLEPSYPGDNATPEQMAKYAAELRRYINKLTRPRY [4058151]
Solution: 10.24

Exercise: # pIC50 lookup, item PLEPTYPGDNATPEQMARYAAALRRYINKLTRPRY [4058067]
Solution: 10.33

Exercise: # pIC50 lookup, item PAPLEPEYPGDNATPEELAKYAAELRRYINKLTRPRY [4058078]
Solution: 10.14

Exercise: # pIC50 lookup, item PLEPEYPGDNATPEEMAKYAAELRRYINKLTRPRY [4058072]
Solution: 10.29

[a] AAPLEPSYPGDDATPQQMAHYYSELRRYINLLTRPRY [4058082]
[b] AAPLEPEYPGDNATPEEMAKYAAELRRYINKLTRPRY [4058076]
Exercise: Compare a and b by numeric pIC50 and name the larger one. Give the label of your selection.
Solution: b
